- Test system: COLO 205 colorectal tumor cells
- procedure summary: Tumor cell viability inhibition assay (CellTiter-Glo 2.0, 72 hours)
- Format: cell-based
- recorded conditions: COLO 205 cell viability
pIC50: −log10 of the molar value.
readout name: pIC50

Before answering, review these 5 worked examples.
[
  {
    "molecule": "Cc1cc(-c2cc(Cl)ccc2OCCn2c(C)nc3c(c2=O)CC(CN(C)C)(N2CCC(OC(F)(F)F)CC2)CC3)c2scc(C(=O)O)c2n1 (single isomer, unassigned) [Compound 620]",
    "readout name": "pIC50",
    "value measured": "> 5.30"
  },
  {
    "molecule": "Cc1cc(-c2cc(Cl)ccc2OCCn2c(C)nc3c(c2=O)CC(N(C)C2(C4CCC4)CC2)CC3)c2scc(C(=O)O)c2n1 (single isomer, unassigned) [Compound 243]",
    "readout name": "pIC50",
    "value measured": "4.70 to 5.30"
  },
  {
    "molecule": "COC1CCN(C2(C)CCc3nc(C)n(CCOc4ccc(Cl)cc4-c4cc(C)nc5c(C(=O)O)csc45)c(=O)c3C2)CC1(C)C (single isomer, unassigned) [Compound 565]",
    "readout name": "pIC50",
    "value measured": "> 5.30"
  },
  {
    "molecule": "Cc1cc(-c2cc(Cl)ccc2OCCn2c(C)nc3c(c2=O)CC(N2CC(F)C2)CC3)c2scc(C(=O)NS(C)(=O)=O)c2n1 (single isomer, unassigned) [Compound 343]",
    "readout name": "pIC50",
    "value measured": "> 5.30"
  },
  {
    "molecule": "Cc1cc(-c2cc(Cl)ccc2OCCn2c(C)nc3c(c2=O)CC(N2CC4(CCCNC4)C2)CC3)c2scc(C(=O)O)c2n1 (single isomer, unassigned) [Compound 510]",
    "readout name": "pIC50",
    "value measured": "< 4.70"
  }
]

# returns recorded pIC50 (system: COLO 205 colorectal tumor cells) for Cc1cc(-c2cc(Cl)ccc2OCCn2c(C)nc3c(c2=O)CC(N2CC4(CCCN(CC(F)(F)F)C4)C2)CC3)c2scc(C(=O)O)c2n1 (single isomer, unassigned) [Compound 508] > 5.30

Okay, and Cc1cc(-c2cc(Cl)ccc2OCCn2c(C)nc3c(c2=O)CC(N(C)C2CCC(F)(F)C2)CC3)c2scc(C(=O)O)c2n1 (single isomer, unassigned) [Compound 338] ? > 5.30

Okay, and COc1cc(CN(C)C2CCc3nc(C)n(CCOc4ccc(Cl)cc4-c4cc(C)nc5c(C(=O)NS(C)(=O)=O)csc45)c(=O)c3C2)ccn1 (single isomer, unassigned) [Compound 220] ? > 5.30

Okay, and Cc1cc(-c2cc(Cl)ccc2OCCn2c(C)nc3c(c2=O)CC(N2CC4COCC4C2)CC3)c2scc(C(=O)NS(C)(=O)=O)c2n1 (single isomer, unassigned) [Compound 89] ? > 5.30

Okay, and Cc1nc2c(c(=O)n1CCOc1ccc(Cl)cc1-c1cccc(C(=O)O)c1)CC(N(C)C)CC2 (single isomer, unassigned) [Compound 24] ? 4.70 to 5.30

Okay, and Cc1cc(-c2cc(Cl)ccc2OCCn2c(C)nc3c(c2=O)CC(N2CCC(CC(F)(F)F)CC2)CC3(C)C)c2scc(C(=O)O)c2n1 (single isomer, unassigned) [Compound 500] ? > 5.30

Okay, and Cc1cc(-c2cc(Cl)ccc2OCCn2c(C)nc3c(c2=O)CC(N2CCC(C(F)(F)F)CC2)CC3)c2scc(C(=O)NS(C)(=O)=O)c2n1 (single isomer, unassigned) [Compound 433] ? > 5.30

Okay, and COC1CCN(C2CCc3nc(C)n(CC#Cc4ccc(Cl)cc4-c4ccnc5c(C(=O)NS(C)(=O)=O)csc45)c(=O)c3C2)CC1 (single isomer, unassigned) [Compound 491] ? > 5.30

Okay, and Cc1cc(-c2cc(Cl)ccc2OCCn2c(C)nc3c(c2=O)CC(N2CCC(OC(F)(F)F)CC2)CC32CC2)c2scc(C(=O)O)c2n1 (single isomer, unassigned) [Compound 380] ? > 5.30

Okay, and Cc1cc(-c2cc(Cl)ccc2OCCn2c(C)nc3c(c2=O)CC(C)(N2CCC(C(F)(F)F)CC2)CC3)c2scc(C(=O)O)c2n1 (single isomer, unassigned) [Compound 531] ? > 5.30

Okay, and Cc1cc(-c2cc(Cl)ccc2OCCn2c(C)nc3c(c2=O)CC(N(C)C2CC2)CC3)c2scc(C(=O)NS(=O)(=O)c3ccccn3)c2n1 (single isomer, unassigned) [Compound 287] ? 4.70 to 5.30

---

- System: COLO 205 colorectal tumor cells
- procedure summary: Tumor cell viability inhibition assay (CellTiter-Glo 2.0, 72 hours)
- Assay type: cell-based
- recorded conditions: COLO 205 cell viability
readout name: IC50

Before answering, review these 3 worked examples.
[
  {
    "compound": "Cc1cc(-c2cc(Cl)ccc2OCCn2c(C)nc3c(c2=O)CC(CN)(N2CCC(OC(F)(F)F)CC2)CC3)c2scc(C(=O)O)c2n1 (single isomer, unassigned)",
    "IC50": "> 20 µM"
  },
  {
    "compound": "Cc1cc(-c2cc(Cl)ccc2C#CCn2c(C)nc3c(c2=O)CC(C)(N2CCCC4(C2)CC4(F)F)CC3)c2scc(C(=O)O)c2n1 (single isomer, unassigned) [Compound 614]",
    "IC50": "< 5 µM"
  },
  {
    "compound": "Cc1cc(-c2cc(Cl)ccc2C#CCn2c(C)nc3c(c2=O)CC(C)(N2CCCC4(C2)CC4(F)F)CC3)c2scc(C(=O)O)c2n1 (single isomer, unassigned) [Compound 612]",
    "IC50": "5 to 20 µM"
  }
]

Now for a further compound.
Can you share its IC50? I mean this compound: Cc1cc(-c2cc(Cl)ccc2OCCn2c(C)nc3c(c2=O)CC(N(C)C2CC2)CC3)c2sccc2n1 (single isomer, unassigned) 5 to 20 µM

---

Listing of recorded IC50 by entry.
- target of assay: human eIF4E protein (Homo sapiens)
- Sequence (P06730 whole entry): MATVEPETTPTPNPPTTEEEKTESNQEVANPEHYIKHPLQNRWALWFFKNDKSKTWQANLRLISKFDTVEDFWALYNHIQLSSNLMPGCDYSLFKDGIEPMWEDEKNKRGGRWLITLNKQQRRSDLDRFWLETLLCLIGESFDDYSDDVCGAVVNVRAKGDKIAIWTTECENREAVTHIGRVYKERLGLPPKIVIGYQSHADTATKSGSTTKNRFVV

Before answering, review these 2 worked examples.
[
  {
    "compound": "Cc1cc(-c2cc(Cl)ccc2OCCn2c(C)nc3c(c2=O)C[C@@H](N2CC[C@@H](C(F)F)C2)CC3)c2scc(C(=O)O)c2n1 (single isomer, unassigned)",
    "value measured": "< 100 nM"
  },
  {
    "compound": "Cc1cc(-c2cc(Cl)ccc2OCCn2c(C)nc3c(c2=O)C[C@@H](N2CCCC(C)[C@@H]2C(F)(F)F)CC32CC2)c2scc(C(=O)O)c2n1 (single isomer, unassigned)",
    "value measured": "100 to 500 nM"
  }
]

Can you share its IC50? I mean this compound: Cc1cc(-c2cc(Cl)ccc2OCCn2c(C)nc3c(c2=O)CC(N(C)C2CC2)CC3)c2c(n1)c(C(=O)O)cn2C (stereo not drawn) 500 to 5000 nM

---

- Test system: COLO 205 colorectal tumor cells
- procedure summary: Tumor cell viability inhibition assay (CellTiter-Glo 2.0, 72 hours)
- Type: cell-based
- recorded conditions: Homo sapiens, COLO 205, 72 h, COLO 205 cell viability
Listing of recorded IC50 by entry.

Can you share its IC50? I mean this molecule: Cc1cc(-c2cc(Cl)ccc2OCCn2c(C)nc3c(c2=O)CC(N(C)CC2COC2)CC3)c2scc(C(=O)O)c2n1 (stereo not drawn) < 5 µM

Okay, and Cc1cc(-c2cc(Cl)ccc2OCCn2c(C)nc3c(c2=O)C[C@H](N2CCC[C@H](c4cnn(C)c4)C2)CC3)c2scc(C(=O)O)c2n1 (single isomer, unassigned) ? < 5 µM

Okay, and Cc1cc(-c2cc(Cl)ccc2OCCn2c(C)nc3c(c2=O)C[C@@H](N2CCC[C@@]4(C2)CC4(F)F)CC32CC2)c2scc(C(=O)O)c2n1 (single isomer, unassigned) ? < 5 µM

Okay, and Cc1cc(-c2cc(Cl)ccc2OCCn2c(C)nc3c(c2=O)CC(N2CC4CC(C2)C4(F)F)CC3)c2scc(C(=O)O)c2n1 (single isomer, unassigned) ? < 5 µM

Okay, and Cc1cc(-c2cc(Cl)ccc2OCCn2c(C)nc3c(c2=O)CC(N(C)Cc2ccc(C(F)(F)F)cc2)CC3)c2scc(C(=O)O)c2n1 (stereo not drawn) ? < 5 µM

Okay, and Cc1cc(-c2cc(Cl)ccc2OCCn2c(C)nc3c(c2=O)CC(N(C)C2CCOCC2)CC3)c2scc(C(=O)O)c2n1 (stereo not drawn) ? 5 to 20 µM

Okay, and CO[C@@H]1CCN([C@]2(C)CCc3nc(C)n(CCOc4ccc(Cl)cc4-c4cc(C)nc5c(C(=O)O)csc45)c(=O)c3C2)CC1(C)C (single isomer, unassigned) ? 5 to 20 µM

Okay, and Cc1cc(-c2cc(Cl)ccc2OCCn2c(C)nc3c(c2=O)C[C@@H](N2CC[C@@H](OC(F)(F)F)C2)CC3)c2scc(C(=O)O)c2n1 (single isomer, unassigned) ? < 5 µM

Okay, and Cc1cc(-c2cc(Cl)ccc2OCCn2c(C)nc3c(c2=O)CC(N(C)C2CC2)CC3)c2c(n1)c(C(=O)NS(C)(=O)=O)cn2C (stereo not drawn) ? > 20 µM

Okay, and Cc1cc(-c2cc(Cl)ccc2OCCn2c(C)nc3c(c2=O)CC(N(C)CC2CC(F)(F)C2)CC3)c2scc(C(N)=O)c2n1 (stereo not drawn) ? 5 to 20 µM

Okay, and Cc1cc(-c2cc(Cl)ccc2OCCn2c(C)nc3c(c2=O)CC(N(C)C2CCN(CC(F)(F)F)CC2)CC3)c2scc(C(=O)O)c2n1 (stereo not drawn) ? < 5 µM

Okay, and Cc1cc(-c2cc(Cl)ccc2OCCn2c(C)nc3c(c2=O)C[C@H](N2CCC(c4nccs4)CC2)CC3)c2scc(C(=O)O)c2n1 (single isomer, unassigned) ? < 5 µM
